Entry source: paper PMC8634379

- assayed.system: murine sEH (Mus musculus)
- Sequence (P34914 whole entry): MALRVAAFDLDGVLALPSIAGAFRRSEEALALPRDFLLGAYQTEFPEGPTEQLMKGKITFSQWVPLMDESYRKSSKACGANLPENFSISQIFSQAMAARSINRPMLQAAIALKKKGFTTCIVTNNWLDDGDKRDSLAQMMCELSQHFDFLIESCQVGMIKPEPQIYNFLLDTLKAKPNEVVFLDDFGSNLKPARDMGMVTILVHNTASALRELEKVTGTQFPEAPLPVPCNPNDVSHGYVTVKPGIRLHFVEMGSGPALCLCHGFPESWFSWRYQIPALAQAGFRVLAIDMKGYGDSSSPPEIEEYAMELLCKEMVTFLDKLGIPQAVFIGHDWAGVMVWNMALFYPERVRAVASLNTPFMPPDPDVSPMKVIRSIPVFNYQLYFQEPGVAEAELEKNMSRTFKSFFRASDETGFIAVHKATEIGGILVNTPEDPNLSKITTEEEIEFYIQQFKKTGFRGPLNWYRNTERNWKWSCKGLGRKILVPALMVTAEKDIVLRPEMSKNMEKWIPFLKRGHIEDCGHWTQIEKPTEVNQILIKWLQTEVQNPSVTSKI
- test: sEH inhibition, fluorescent-based assay (CMNPC substrate)
- assay.context: purified recombinant enzyme, average of three replicates
Reported IC50 values follow for various compounds
The response must be a number in nM with no trailing unit.

CC12CC3CC(NC(=O)N[C@H]4CC[C@H](Oc5ccc(C(=O)O)cc5)CC4)(CC(C1)c1ccccc13)C2 [Compound 20]
9.9

In the following, a different compound is considered.
Request: // lookup IC50 for O=C(NC12CC3CC(F)(CC(C1)c1ccccc13)C2)N[C@H]1CC[C@H](Oc2ccc(C(=O)O)cc2)CC1 [Compound 23]
Response: 0.5
